# Tested on: methicillin-resistant Staphylococcus aureus (ATCC 33591)
# Experiment: MIC determination by broth dilution
# Format: cell-based
# Protocol conditions: Staphylococcus aureus, ATCC 33591 / MRSA, 48 h; compound alone; MRSA ATCC 33591; 2 days at 37° C.; read-out: MIC
Measured quantity: MIC (µg/mL)
Answers are plain numbers, in µg/mL.

Consider the following illustrative entries.
CCCCCCCCCCCO : 50
CCCCCCCCCCCCO : 80
CCCCCCCCCCCCCO : 50

Let's switch to this compound now.
Item COc1cccc(OC)c1C(=O)N[C@@H]1C(=O)N2[C@@H]1SC(C)(C)[C@@H]2C(=O)O [Methicillin, methicillin, reference compound] : provide MIC 800
